Taken from the supplement of paper PMC12669032.

# Test system: Fusobacterium nucleatum subsp. animalis
# ASSAY_NAME: growth AUC relative to DMSO control (median of replicates) (fraction); higher = more growth (less inhibition), active = hit call of the paper
# REPORTED_CONDITIONS: 20 µM; 24 h
READOUT_TYPE: growth AUC
Give bare numbers.

The cases that follow already have their growth AUC on record.
CCOC(=O)CCN(SN(C)C(=O)Oc1cccc2c1OC(C)(C)C2)C(C)C = 0.907
Oc1ccc(Cl)cc1Cc1cc(Cl)ccc1O = 0.845
c1cc2ccc3cccc4ccc(c1)c2c34 = 0.945

Hi team, please reply with growth AUC for each item in this list.
1. O=S(=O)(c1ccccc1)c1ccccc1
2. Cc1cnc2c(C(=O)O)c(Cl)ccc2c1
3. CCOc1cc(Oc2ccc(C(F)(F)F)cc2Cl)ccc1[N+](=O)[O-]

Completion:
1
0.952
1.09

---

# System: Lactobacillus gasseri
# ASSAY_NAME: growth AUC relative to DMSO control (median of replicates) (fraction); higher = more growth (less inhibition), active = hit call of the paper
# REPORTED_CONDITIONS: 20 µM; 24 h
Consider the following compounds; for each one, report its growth AUC.
Numbers only.

O=NN(CCO)CCO = 0.976
ClC1(Cl)C2(Cl)C3(Cl)C4(Cl)C(Cl)(Cl)C5(Cl)C3(Cl)C1(Cl)C5(Cl)C24Cl (centres undefined) = 0.939
CC(C)OP(=O)(OC(C)C)SCc1ccccc1 = 0.959

Hey, quick one: what's growth AUC for each of these?
1. c1ccc2c(c1)-c1cccc3cccc-2c13
2. CC[C@H](C)[C@H]1O[C@]2(C=C[C@@H]1C)C[C@@H]1C[C@@H](C/C=C(\C)[C@@H](O[C@H]3C[C@H](OC)[C@@H](O[C@H]4C[C@H](OC)[C@@H](NC)[C@H](C)O4)[C@H](C)O3)[C@@H](C)/C=C/C=C3\CO[C@@H]4[C@H](O)C(C)=C[C@@H](C(=O)O1)[C@]34O)O2.O=C(O)c1ccccc1
3. Nc1nc(N)nc(N)n1
4. O=S1(=O)OCC2C(CO1)C1(Cl)C(Cl)=C(Cl)C2(Cl)C1(Cl)Cl (centres undefined)
5. C=CCNC(=O)c1c([Si](C)(C)C)sc(C)c1C
6. CCCSC(=O)N(CCC)CCC

Completion:
1.03
0.714
1.01
0.919
1.05
1.01

---

# System: Escherichia coli IAI1
# ASSAY_NAME: growth AUC relative to DMSO control (median of replicates) (fraction); higher = more growth (less inhibition), active = hit call of the paper
# REPORTED_CONDITIONS: 20 µM; 24 h
READOUT_TYPE: growth AUC
Numbers only.

Here are 5 compounds together with their reported answers.
ClC1=C(Cl)C2(Cl)C(CBr)CC1(Cl)C2(Cl)Cl (stereo not given) = 0.986
C/C(=N/Nc1nc(C)cc(C)n1)c1ccccc1C = 1.04
Clc1cc(Cl)c(Cl)cc1Cl = 1.04
Cc1cc(C2CC2)nc(Nc2ccccc2)n1 = 0.962
C=C/C=C/CC1=C(C)C(OC(=O)[C@@H]2C(/C=C(\C)C(=O)OC)C2(C)C)CC1=O.C=C/C=C/CC1=C(C)[C@@H](OC(=O)[C@@H]2C(C=C(C)C)C2(C)C)CC1=O (stereo not given in full) = 0.966

Would you mind listing growth AUC for each of the following compounds?
1. CCOP(=S)(OCC)SCn1c(=O)oc2cc(Cl)ccc21
2. CCOCn1c(-c2ccc(Cl)cc2)c(C#N)c(Br)c1C(F)(F)F

Completion:
[0.974, 0.99]

Parameters: items (list). Returns: growth AUC for each item.
1. N#Cc1nn(-c2c(Cl)cc(C(F)(F)F)cc2Cl)c(N)c1SC(F)(F)F
2. CN1COCN(Cc2cnc(Cl)s2)/C1=N/[N+](=O)[O-]

Completion:
1: 0.985; 2: 0.97

Prompt: // returns reported growth AUC for input `CON(C)C(=O)Nc1ccc(Br)c(Cl)c1`
Completion: 1.04
